Test system: C33A cervical carcinoma cells
experiment.summary: Cancer cell viability by cellular ATP levels (ViaLight), C33A
Assay type: cell-based
details: Homo sapiens, C-33-A, 72 h, 3 days of incubation, ATP levels relative to untreated control
Field 'label' (enum: met / not met). Set to met when IC50 is strictly under 3000 nM; else not met.

COC1=CC(c2ccc(OC)c(OC)c2OC)=NC1=Cc1[nH]c(C)cc1C [Compound 18]; met
COC1=CC(c2ccc(OC)c(F)c2)=NC1=Cc1[nH]c(C)cc1C [Compound 26]; met
COC1=CC(c2cnc(OC)nc2OC)=NC1=Cc1[nH]c(C)cc1C [Compound 32]; not met
COC1=CC(c2ccc3c(c2)OCCN3C)=NC1=Cc1[nH]c(C)cc1C [Compound 34]; met
COC1=CC(c2ccoc2)=NC1=Cc1[nH]c(C)cc1C [Compound 14]; met
COC1=CC(c2ccc(Br)s2)=NC1=Cc1[nH]c(C)cc1C [Compound 7]; not met
COC1=CC(c2cc(OC)ccc2OC)=NC1=Cc1[nH]c(C)cc1C [Compound 19]; not met
COC1=CC(c2ccc(OC)c(OC)c2)=NC1=Cc1[nH]c(C)cc1C [Compound 17]; met
COC1=CC(c2ccccc2)=NC1=Cc1[nH]c(C)cc1C [Compound 1]; not met
COC1=CC(c2cccnc2OC)=NC1=Cc1[nH]c(C)cc1C [Compound 30]; met

Q. Threshold test, IC50 < 3000 nM: COC1=CC(c2ccc(F)nc2)=NC1=Cc1[nH]c(C)cc1C [Compound 39]
A. not met

Q. Threshold test, IC50 < 3000 nM: COC1=CC(c2cccc([N+](=O)[O-])c2)=NC1=Cc1[nH]c(C)cc1C [Compound 12]
A. not met

Q. Threshold test, IC50 < 3000 nM: COC1=CC(c2ccsc2)=NC1=Cc1[nH]c(C)cc1C [Compound 15]
A. met

Q. Threshold test, IC50 < 3000 nM: COC1=CC(c2cc(OC)c(OC)c(OC)c2)=NC1=Cc1[nH]c(C)cc1C [Compound 28]
A. met

Q. Threshold test, IC50 < 3000 nM: COC1=CC(c2ccc3c(c2)OCC3)=NC1=Cc1[nH]c(C)cc1C [Compound 31]
A. met

Q. Threshold test, IC50 < 3000 nM: COC1=CC(c2ccc3c(c2)OCO3)=NC1=Cc1[nH]c(C)cc1C [Compound 20]
A. met
